# TEST TARGET: T1, C-terminal MRG domain of Eaf3 (Eaf3^MRG, aa 218–401) (S. cerevisiae, UniProt Q12432 218-401)
# T1 construct: Eaf3, S. cerevisiae, C-terminal MRG domain, aa 218–401
# T1 sequence (looked up): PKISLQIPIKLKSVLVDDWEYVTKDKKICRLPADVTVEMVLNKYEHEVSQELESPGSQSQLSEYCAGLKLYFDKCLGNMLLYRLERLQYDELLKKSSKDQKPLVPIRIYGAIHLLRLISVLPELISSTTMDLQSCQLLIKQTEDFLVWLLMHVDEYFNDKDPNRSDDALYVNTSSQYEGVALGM
# METHOD NOTES: ITC; SUMO–Eaf7^108–143 or SUMO alone with Eaf3^MRG or the Eaf3^MRG–Rco1^PHD1–SID complex
# MEASUREMENT CONTEXT: both partners purified
MEASURE: Kd (nM)
One number for each entry, in nM.

So what's the measured Kd for this one? EETLLELNNRIRVRKQDFTLPWEEYGELILENARKS (domain or fragment, S. cerevisiae, UniProt P53911 108-143, looked up) [SUMO–Eaf7^108–143]
1000
